max response values for the molecules below.
Experiment: Cycloheximide Counterscreen for Small Molecule Inhibitors of Shiga Toxin; also: read at 38.3 µM for the half of the compounds with a filed dose; 0% is about no effect
Settings: cell reporter, cycloheximide protein synthesis inhibition counterscreen; active compounds read high
Hit rate of the full screen: of about 300,000 compounds, about 37,000 (12%) were called active. The entries come from a sample that favours actives as a whole.

molecule	max response / %
CC(=O)Nc1ccc(S(=O)(=O)NNC(=O)CCc2ccccc2)cc1	17.5
Cc1nn2c(c1-c1ccccc1)N=C(c1ccco1)CC2c1ccccc1 (stereo not given)	20.9
O=C(O)CCCC(=O)N1N=C(c2ccco2)CC1c1ccco1 (stereo not given)	-3.77
COc1ccccc1C1CCN(c2ccc([N+](=O)[O-])cn2)CC1	4.09
Cc1c(CCO)c(=O)[nH]n1C(=O)c1c(F)cccc1F	17
CC(C(=O)NCC1CCCCC1)N(C)Cc1cccc(Cl)c1 (stereo not given)	-4.34
N#C/C(=C(/O)Cc1cccc2ccccc12)c1nc2ccccc2s1	-8.33
CC(=O)Nc1ccc(S(=O)(=O)N2CCN(c3ccc([N+](=O)[O-])c(NCCN4CCOCC4)c3)CC2)cc1	-3.02
CC(C)N1CCC(=NNc2ccc([N+](=O)[O-])cc2S(=O)(=O)N2CCOCC2)CC1	-2.55
CN(Cc1ccccc1)C(=O)c1cccc(C(=O)N(C)Cc2ccccc2)c1	-3.47

###

Experiment: Cycloheximide Counterscreen for Small Molecule Inhibitors of Shiga Toxin; also: read at 38.3 µM for the half of the compounds with a filed dose; 0% is about no effect
Settings: cell reporter, cycloheximide protein synthesis inhibition counterscreen
Out of some 300,000 compounds screened, about 37,000 (12%) were called active. Cut-off read from the data, not from the text of the source: active = max response mostly above about 13% (no sharp cut-off); inactive = mostly below about 14%. The list comes from a sample in which actives are over-represented; it also holds close analogues and randomly drawn compounds.
Labels: active, inactive

compound	class
Cc1cccc(N(C)C(=O)c2cc3c(=O)[nH]c4ccc(C)cc4c3s2)c1	inactive
Cc1ccccc1OC/C(O)=C(\C#N)c1nc2ccccc2[nH]1	inactive
O=C(NC1CCCC1)C(c1c(F)cccc1Cl)N(C(=O)c1csnn1)C1CC1 (stereo not drawn)	inactive
C=CCn1c(=S)sc2c(=O)[nH]c(C)nc21	inactive
CCOC(=O)c1cc(=O)c2ccc(OCc3ccccc3)cc2o1	inactive
Clc1ccc(-c2cc(-c3ccccn3)on2)c(Cl)c1	active
O=Cc1ccc(Oc2cccc(C(F)(F)F)c2)nc1	inactive
COc1ccccc1N1CCN(C(=O)c2c(-c3c(Cl)cccc3Cl)noc2C)CC1	inactive
COCCN(CCOC)S(=O)(=O)c1ccc(/C(O)=C(\C#N)c2nc3ccccc3[nH]2)cc1	active
COc1ccc(NC(=O)CCS(=O)(=O)c2cc3c(cc2Cl)NC(=O)CO3)cc1OC	inactive
CCCc1cc(=O)[nH]c(SCC(=O)Nc2sc3c(c2C#N)CCCC3)n1	inactive
COc1cc(NC(=O)CCNC(=O)Cn2ccc3ccccc3c2=O)cc(OC)c1OC	inactive
O=C1CSC(c2ccccc2)N1c1nc(-c2ccc(Cl)cc2Cl)cs1 (stereo not drawn)	inactive
CCOC(=O)C1=C(CN2CCc3ccccc32)NC(=O)NC1c1ccc(Cl)cc1 (stereo not drawn)	inactive
Cc1cc(NC(=O)CSc2nc3ccccc3n2CC(C)C)no1	inactive
Cc1cc(NC(=O)CSc2nc(=O)cc(N)n2-c2ccc(F)cc2)no1	inactive
O=C(c1c(Cl)cccc1Cl)N1CCN(c2cccc3[nH]ccc23)CC1	inactive
Cc1cccc(NS(=O)(=O)c2ccc(-c3cnc(C4CC4)o3)cc2)c1	inactive
COCC1CCN(C(=O)CCc2nnc(C3(c4ccc(Cl)cc4)CCC3)o2)C1 (stereo not drawn)	active
O=C1CN(C(=O)c2cc(F)cc(F)c2)c2ccccc2N1	inactive
O=C1CSc2ccc(S(=O)(=O)NCc3ccccc3)cc2N1	inactive
O=C(Nc1ccc(N2CCN(C(=O)c3ccccc3)CC2)c(Cl)c1)c1ncn[nH]1	inactive
CCCOc1ccc(Cc2c(O)nc(SC)[nH]c2=O)cc1C	inactive
O=C(CCCN1C(=O)/C(=C/c2cccs2)SC1=S)Nc1ccc(O)cc1	inactive
Cc1ccc2nc(-c3ccc(SCC(=O)Nc4cc(C)on4)nc3)[nH]c2c1	active
COc1ccc(N2CCN(C(=O)[C@@H](NC(=O)c3cc(OC)cc(OC)c3)C(C)C)CC2)cc1	inactive
CC(C)(C)c1cc(P(=O)(c2ccccc2)c2ccccc2)ccc1O	inactive
Cc1cccnc1NC(=O)Cn1c(=O)oc2ccccc21	inactive
Cc1cccc2nc(CNc3ccc(F)cc3)cn12	active
COc1ccc(S(=O)(=O)NCCOc2ccccc2)cc1F	inactive
O=S(=O)(NC1CCCC1)c1ccc(-n2cnnn2)cc1	inactive
CCOC(=O)NN1C(=O)c2ccccc2NC1c1cccc(O)c1 (stereo not drawn)	inactive
CCC(=O)Nc1nnc(S(=O)(=O)N2CCCc3ccccc32)s1	inactive
N#C/C(=C(/O)COc1cccc2ccccc12)c1nc2ccccc2[nH]1	inactive
CCC(CC)COC(=O)C1=C(C)NC(=O)NC1c1ccc([N+](=O)[O-])cc1 (stereo not drawn)	inactive
CSc1cccc(NC(=S)N(Cc2ccccc2)Cc2ccccn2)c1	inactive
Cc1noc(NS(=O)(=O)c2ccc(NC(=O)c3oc4ccc(F)cc4c3C)cc2)c1C	inactive
Cc1cccc(NC(=O)CN2CCCN(S(=O)(=O)c3ccc(Br)s3)CC2)c1	inactive
O=C(c1cccc(F)c1)N1CCN(c2ccc([N+](=O)[O-])c3cccnc23)CC1	inactive
O=C1NN(c2ccccc2)C(=O)/C1=C/c1ccc(-c2cccc(C(=O)O)c2)o1	inactive
Cc1ccc(Cl)cc1N1CCN(C(=O)c2cccc3c(=O)c(C)c(-c4ccccc4)oc23)CC1	inactive
COc1ccc(C2C(C(=O)N3CCN(c4ccc(OC)cc4)CC3)c3ccccc3C(=O)N2C)cc1 (stereo not drawn)	inactive
COc1cccc(-c2nnc(NC(=O)c3ccc(S(=O)(=O)N(CC(C)C)CC(C)C)cc3)o2)c1	inactive

###

Experiment: Cycloheximide Counterscreen for Small Molecule Inhibitors of Shiga Toxin; also: read at 38.3 µM for the half of the compounds with a filed dose; 0% is about no effect
Settings: cell reporter, cycloheximide protein synthesis inhibition counterscreen; active compounds read high
Among all 300,000 compounds or so, about 37,000 (12%) were called active. Shown is part of a subset that was picked to be rich in actives.

compound	unit.abbreviation	max response
Cc1noc(C)c1S(=O)(=O)Nc1cc(C(F)(F)F)ccc1N1CCOCC1	%	1.06
Nc1nnc(SCC(=O)Nc2ccc3nc(SCC(=O)Nc4ccccc4)sc3c2)s1	%	33.9
Cc1ccc(NC(=O)[C@H](Cc2ccccc2)NC(=O)C2CCNCC2)cc1	%	-1.28
CN(C)S(=O)(=O)c1cccc(NC(=S)NCc2ccc3c(c2)OCO3)c1	%	0.966
CCCCc1ccc(NC(=S)NCCCN2CCOCC2)cc1	%	12
COc1ccc(C(=O)CCC(=O)Nc2ccc(Cl)cc2)cc1	%	0.287
Cc1c(Cl)cccc1NC(=S)NCc1ccc2c(c1)OCO2	%	-1.28
FC(F)(F)c1cccc(NC(=S)Nc2cccc(Cl)c2)c1	%	-2.33
Cc1cc(Nc2ccc(C(=O)N3CCCCC3)cc2)c2cccc(C)c2n1	%	-1.19
CCCCc1ccc(NC(=S)N2CCCC(CO)C2)cc1 (centres undefined)	%	39.3
CC(=O)Oc1ccc2c(C)c(CC(C)O)c(=O)oc2c1 (centres undefined)	%	-8.36
O=C(Cc1ccccc1)NC(=S)Nc1ccc(N2CCCCC2)cc1	%	20.2
FC(F)Oc1ccc(NC(=S)NCc2ccco2)cc1Cl	%	11.2
S=C(NCc1ccco1)Nc1ccc2c(c1)OCCO2	%	69.9
OC(CNCCc1ccc(Cl)cc1Cl)COc1ccccc1 (centres undefined)	%	-1.8
COc1ccc(C(=O)N/N=C(\C)CC(=O)Nc2ccc(Cl)cn2)cc1	%	28.3
Cc1ccccc1NC(=O)C(C)c1ccc(-c2ccccc2)c(F)c1 (centres undefined)	%	-5.36
COc1ccc(COC(=O)N/N=C(\C)CC(=O)Nc2ccc(Cl)cc2)cc1	%	12.4
CSc1ccc(C(=O)C2CCCN(C(=O)c3ccc(C)nc3)C2)cc1 (centres undefined)	%	-0.923
CCc1c(C)c2ccc(OC3CCCCC3=O)cc2oc1=O (centres undefined)	%	16.5
S=C(NCc1ccc2c(c1)OCO2)NCc1ccco1	%	28.4
COc1ccc(NC(=S)N2CCCC(CO)C2)c(OC)c1 (centres undefined)	%	-1.58
S=C(Nc1cccc(Cl)c1)Nc1ccc2c(c1)OCCO2	%	42.2
COc1cccc(CNC(=O)C2CCCN(c3ncnc4c3nc3n4CCCCC3)C2)c1 (centres undefined)	%	-1.2

###

// values below are reported max response
Assay: Cycloheximide Counterscreen for Small Molecule Inhibitors of Shiga Toxin; also: read at 38.3 µM for the half of the compounds with a filed dose; 0% is about no effect
Settings: cell reporter, cycloheximide protein synthesis inhibition counterscreen; active compounds read high
Out of some 300,000 compounds screened, about 37,000 (12%) were called active. This excerpt belongs to a sample that is enriched for actives.

compound.string	max response [%]
O=C(N/N=C/c1ccccc1O)C1CCCC1	28
CCOC(=O)C(=O)Nc1nc(-c2ccccc2)c(CC)s1	-3.08
CC(C)(C)NC(=O)CN(Cc1cccs1)C(=O)CNS(=O)(=O)c1ccccc1	15.6
Cc1ccc(S(=O)(=O)NCC(=O)N(CC(=O)NC(C)(C)C)Cc2cccs2)cc1	0.104
O=C(Nc1nc(-c2ccc3c(c2)OCO3)cs1)c1ccncc1	21
CCC(C)(C)NC(=O)CN(Cc1cccs1)C(=O)CNS(=O)(=O)c1ccc(F)cc1	1.08
Cc1cc(N(C)C)nc(Cl)n1	-9.03
CCc1ccc(S(=O)(=O)Nc2cc3c(cc2N2CCCCC2)n(C)c(=O)c(=O)n3C)cc1	3.05
COc1cccc(OC)c1C(=O)N1CCN(Cc2cccnc2)CC1	-3.44
O=C(Cn1nc([N+](=O)[O-])nc1Br)NC1CCCCC1	-4.71
Cc1ccc(O)c(NC(=O)COc2cc(C)ccc2C)c1	28.6
CC(C)CC(=O)N1CCN(Cc2cccc(Cl)c2)CC1	-0.27
Cc1ccc(O)c(NC(=S)NC(=O)COc2ccc(Br)cc2)c1	-1.57
C/C(=N/Nc1nc(-c2ccccc2)c(CC(=O)O)s1)c1ccccc1	35
COC(=O)[C@@H]1CCCN1C(=O)c1cc(COc2cccc3cccnc23)on1	-3.11
O=C(O)CSc1c2c(nc3cc(C(=O)Nc4cccc(C(F)(F)F)c4)ccc13)CCCC2	-2.41
CCn1cc(CN2CCC(C(=O)Nc3cccc(-c4cccc(Cl)c4)c3)CC2)cn1	-10.1
CCOC(=O)[C@@H]1[C@H]2COc3ccc(Br)cc3[C@H]2N2C(=O)N(c3ccc(Cl)cc3)C(=O)[C@@]12C	-3.81
CC(=O)NCCC(=O)Nc1nc(-c2ccc3c(c2)OCCO3)cs1	36.2
CSc1ccccc1OCc1cc(C(=O)N2C[C@H]3CC[C@H]2C3)no1	45.3
COc1ccc(/C=N/NC(=O)C2CC2)c(OC)c1OC	3.25
CCOc1cccc(NC(=O)Cn2nc(-c3ccc4c(c3)OCCO4)ccc2=O)c1	-1.26
